- STUDY_SYSTEM: human kisspeptin receptor (Homo sapiens (Human), UniProt Q969F8)
- Sequence (Q969F8 whole entry): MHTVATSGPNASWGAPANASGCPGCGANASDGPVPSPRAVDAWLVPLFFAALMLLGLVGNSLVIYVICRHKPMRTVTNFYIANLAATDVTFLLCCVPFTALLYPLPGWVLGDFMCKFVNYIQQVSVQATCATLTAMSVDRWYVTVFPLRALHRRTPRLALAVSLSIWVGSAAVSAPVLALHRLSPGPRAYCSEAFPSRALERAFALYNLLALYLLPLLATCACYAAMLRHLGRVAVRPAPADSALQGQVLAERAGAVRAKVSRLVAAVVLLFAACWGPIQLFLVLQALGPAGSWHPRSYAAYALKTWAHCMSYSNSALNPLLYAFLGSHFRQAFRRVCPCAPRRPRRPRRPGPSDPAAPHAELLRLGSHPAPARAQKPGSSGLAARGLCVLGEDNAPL
- PROTOCOL_SUMMARY: Human KISS1R binding assay (membrane competition binding)
- CONDITIONS_USED: 90 min at room temperature; competition with 0.2 nM [125I]-metastin (45-54); Flp-In T-Rex 293 kisspeptin membranes; metal complexes nonradioactive Ga, In, Lu; read-out: hKiSSR Binding Ki (90 min)
pKi: −log10 of the molar value. Square brackets hold non-standard residues; d marks the D form. Peptide text beside a SMILES is read from it. * marks the point of attachment. DOTA = O=C(O)CN1CCN(CC(=O)O)CCN(CC(=O)*)CCN(CC(=O)O)CC1; Gly(N-(3-F-4-Me-benzyl)) = Cc1ccc(CNCC(=O)*)cc1F; dCya = N[C@H](CS(=O)(=O)O)C(=O)O; Api = NC1(C(=O)O)CCNCC1; Ahx = NCCCCCC(=O)O; azaGly = NNC(=O)O
ASSAY_READOUT: pKi

If you can, please state the reported pKi value of Cc1ccc(CNCC(=O)N2CCC(NC(=O)[C@H](CC(C)C)NC(=O)NNC(=O)[C@H](Cc3ccccc3)NC(=O)CCCCCNC(=O)[C@@H](CS(=O)(=O)O)NC(=O)[C@@H](CS(=O)(=O)O)NC(=O)[C@@H](CS(=O)(=O)O)NC(=O)CN3CCN(CC(=O)O)CCN(CC(=O)O)CCN(CC(=O)O)CC3)(C(=O)N[C@@H](Cc3c[nH]c4ccccc34)C(N)=O)CC2)cc1F [Compound 131] ({DOTA}-[dCya][dCya][dCya][Ahx]F[azaGly]L[Api](Gly(N-(3-F-4-Me-benzyl)))W-NH2) . > 8.00
